Data origin: PubChem BioAssay (NCI)

system: HOP-62 NSCLC; assay: NCI tumour cell line growth inhibition, 48 h; in the data active = GI50 below about 0.43 µM; inactive = the rest
Possible outcomes: TRUE for active, FALSE for inactive

| compound | assigned-class |
| --- | --- |
| S=C(Nc1ccc(-c2nc3ccccc3[nH]2)cc1)NC1CCCCC1 | FALSE |
| COc1cc(/C=C/c2cc(C(F)(F)F)[nH]c(=O)n2)ccc1OCc1ccccc1F | FALSE |
| c1ccc2c(c1)[I+]c1ccccc1-2 | FALSE |
| CCOC(=O)[C@@H](C)C[C@H](Cc1ccccc1)NC(=O)c1csc([C@@H](C[C@H](C(C)C)N(C)C(=O)[C@@H](NC(=O)[C@H]2C[C@H](O[Si](C)(C)C(C)(C)C)CCN2C)C(C)C)OC(C)=O)n1 | TRUE |
| O=c1ccn(C2OC(CO)C(O)C2O)c(=O)[nH]1 (stereo not given) | FALSE |
| COc1ccc(/C=C/c2cc(OC)c(OC)c(OC)c2)cc1NC(=O)/C=C/c1ccc(F)cc1 | FALSE |
| CC1=CSC2=NC(c3ccc(Cl)c(Cl)c3)=CC(c3ccc(Cl)cc3)N12 (stereo not given) | FALSE |
| O=C(Nc1ccccc1C(F)(F)F)c1cccc(NC2=C(Cl)C(=O)N(Cc3ccccc3)C2=O)c1 | FALSE |
| COc1cc2c(cc1C)NC(=O)/C2=C\c1cc(OC)c(OC)c(OC)c1 | FALSE |
| Cc1ccc(C(=O)c2oc3ccc4c(C)cc(=O)oc4c3c2C)cc1 | FALSE |

* * *

test system: MCF7 breast; assay: NCI tumour cell line growth inhibition, 48 h
The entries below come with measured TGI values attached.

| compound | TGI |
| --- | --- |
| Nc1c(C(=O)c2ccccc2)sc2nc(-c3cccs3)ccc12 | 4.6 µM |
| COC(OC)C(O)C1OC=CC1n1cnc2c(N)ncnc21 (centres undefined) | > 100 µM |
| Nc1nc2c(ncn2C2C=CC(CO)O2)c(=O)[nH]1 (centres undefined) | > 100 µM |
| COC(=O)c1cncc2c1CC1C3(C(=O)OC)C=NC(C4C(CO)=CCC43)C21C (centres undefined) | > 100 µM |
| Cc1nn(C(=O)c2ccccc2O)c2c1C(c1ccccc1)SC(N)=N2 (centres undefined) | > 10 µM |
| O=C1c2cc(Br)ccc2-c2c1c1ccc([N+](=O)[O-])cc1c(=O)n2CCCCl | > 44 µM |
| NC(CCCCNC(=O)OCc1ccccc1)C(=O)NC(CCCCNC(=O)OCc1ccccc1)C(=O)ON1C(=O)CCC1=O (centres undefined) | > 100 µM |
| COC1/C=C/C(C)C(C(C)C(OC)C(C)CCC(=O)C(C)C(CCC(=O)O)OC)OC(=O)/C=C/C=C(\C)CC(OC)CC2=CC(=O)O[C@@H](C(C)C(OC)CC(OC)/C=C/C(C)C(OC)C1)[C@H]2O (some centres undefined) | > 5 µM |
| O=C(NNC(=S)Nc1ccccc1)c1csc(NC(=S)NC2CCCCC2)n1 | > 100 µM |

* * *

test system: HCT-116 colon; assay: NCI tumour cell line growth inhibition, 48 h

| compound | inequality-operator | TGI [µM] |
| --- | --- | --- |
| O=C(O)c1ccccc1/C=N\NC1=NCCCCN1 | > | 100 |
| CC(=O)NC(CCCCNC(=O)OCc1ccccc1)C(=O)NCc1ccccc1 (centres undefined) | > | 100 |
| O=C1C=CC(=O)c2ncccc21 | = | 4.27 |
| CC1CC(c2ccccc2)=Nc2ccccc2S1(=O)=O (centres undefined) | = | 3.13 |
| COC1=CC23C=CC1[C@@H](c1ccccc1)C2=C(C)C(=O)N3C(=O)NC1CCCCC1 (some centres undefined) | = | 28.3 |
| COP1(=O)CC2C(Cl)(Cl)C2(C)C1 (centres undefined) | > | 100 |
| N#CC(C#N)=C(N)/C(C#N)=C\c1ccnc2ccccc12 | = | 12.4 |
| COc1cc(C2C3=C(COC3=O)OC(C)(C)Oc3cc4c(cc32)OCO4)cc(OC)c1OC (centres undefined) | = | 6.65 |
| O=[As](O)(O)c1cc(N=Nc2ccc(-c3ccc(N=Nc4cc([As](=O)(O)O)c(O)cc4O)cc3)cc2)c(O)cc1O | > | 100 |
